Hey, just so you know, these numbers are from paper PMC4792735.

# assayed system: human OCT1 (Homo sapiens, UniProt O15245)
# Sequence (O15245 whole entry): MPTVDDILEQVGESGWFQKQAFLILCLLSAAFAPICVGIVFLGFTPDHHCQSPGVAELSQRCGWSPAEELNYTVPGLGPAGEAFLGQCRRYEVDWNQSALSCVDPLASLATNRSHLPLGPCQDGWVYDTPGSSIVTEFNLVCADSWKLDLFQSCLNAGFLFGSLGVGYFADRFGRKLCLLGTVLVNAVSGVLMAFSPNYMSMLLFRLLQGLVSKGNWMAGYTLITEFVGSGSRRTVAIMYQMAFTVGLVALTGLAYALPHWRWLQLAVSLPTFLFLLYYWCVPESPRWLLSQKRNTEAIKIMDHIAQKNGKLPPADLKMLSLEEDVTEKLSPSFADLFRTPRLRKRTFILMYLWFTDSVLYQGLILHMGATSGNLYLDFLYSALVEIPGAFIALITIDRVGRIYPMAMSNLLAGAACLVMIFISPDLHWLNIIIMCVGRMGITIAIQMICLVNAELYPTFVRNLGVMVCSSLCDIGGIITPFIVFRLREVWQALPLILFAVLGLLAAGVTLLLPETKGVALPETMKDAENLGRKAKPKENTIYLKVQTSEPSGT
# assay summary: cell-based
parameter: pIC50
Keep it numeric: pIC50 is minus log10 of the concentration in mol/L.

| mol smiles | pIC50 |
| --- | --- |
| CNC(=C[N+](=O)[O-])NCCSCc1ccc(CN(C)C)o1 | 4.57 |

Req: For the compound `COc1c(N2C[C@@H]3CCCN[C@@H]3C2)c(F)cc2c(=O)c(C(=O)O)cn(C3CC3)c12` , report pIC50.
Resp: 4.33

====

# Type: in vivo, human
# condition notes: human, plasma, oral
parameter: half-life

Req: For the molecule `CNC(=C[N+](=O)[O-])NCCSCc1csc(CN(C)C)n1` , report half-life.
Resp: ~3 h
